- System: human normal liver cells (HL-7702)
- Test summary: Cell cytotoxicity assay (CCK8)
- Format: cell-based
- Measurement context: L02, CCK8, 48 h treatment
Property name: IC50 (µM)
Numbers only, in µM.

What the record says about Cc1ccc(Cn2cc3c(-c4ccc5c(c4)OCO5)nnc-3c3cc4c(cc32)OCO4)cc1 : IC50 is 4.38

----------
- Tested on: FAM-TTA45-TAMRA (DNA, G4) GGGTTAGGGTTAGGGTTAGGGTTAGGGTTAGGGTTAGGGTTAGGG
- Test summary: FRET melting
- Measurement context: 100 mM K+ (KCl) plus 10 mM potassium phosphate; pH 7.0; 20 µM compound, 0.5 µM DNA
Kindly state ΔTm for each of the entries shown.
Numbers only, in °C.

CCOc1ccc2c(c1)c1nnc(-c3ccccc3)c-1cn2-c1ccc(Cl)cc1 | 0.98
Cc1ccc(-c2nnc3c4cc5c(cc4n(Cc4ccccc4)cc2-3)OCO5)cc1C | 14.08
OCCn1cc2c(-c3ccc4c(c3)OCO4)nnc-2c2cc3c(cc21)OCO3 | 7.92

Moving on to the next compound.
What the record says about COc1ccc(Cn2cc3c(-c4ccc5c(c4)OCO5)nnc-3c3cc4c(cc32)OCO4)cc1OC : ΔTm is 15.15

Reference source for all entries: paper PMC7672424
